# tested system: Cannabinoid receptor 1 (Homo sapiens, UniProt P21554)
# Sequence (P21554 whole entry): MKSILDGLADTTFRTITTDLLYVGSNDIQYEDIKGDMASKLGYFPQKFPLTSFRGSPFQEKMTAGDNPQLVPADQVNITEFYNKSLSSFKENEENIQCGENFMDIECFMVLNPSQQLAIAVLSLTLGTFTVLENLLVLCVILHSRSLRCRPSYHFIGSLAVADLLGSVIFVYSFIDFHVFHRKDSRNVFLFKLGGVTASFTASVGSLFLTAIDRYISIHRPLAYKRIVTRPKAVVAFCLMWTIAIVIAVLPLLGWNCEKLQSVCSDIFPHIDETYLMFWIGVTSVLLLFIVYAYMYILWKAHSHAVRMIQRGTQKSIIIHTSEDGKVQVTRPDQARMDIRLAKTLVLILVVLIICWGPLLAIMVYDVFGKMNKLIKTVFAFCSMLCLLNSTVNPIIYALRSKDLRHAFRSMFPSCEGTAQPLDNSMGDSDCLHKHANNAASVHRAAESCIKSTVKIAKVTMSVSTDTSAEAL
# method: Negative allosteric modulation of human CB1 receptor expressed in CHO-K1 cells assessed as inhibition of CP55940 induced beta arrestin recruitment preincubated for 30 mins followed by addition of CP55940 for 90 mins by chemiluminescence assay
attribute measured: IC50 (nM)

Solved cases below.
O=S(=O)(NCc1ccc(-c2ccc(F)cc2F)cc1)c1cc2cc(Cl)ccc2[nH]1
4
O=S(=O)(NCc1ccc(-c2ccsc2)cc1)c1cc2ccccc2[nH]1
12
Cc1c(S(=O)(=O)NCc2ccc(Cl)c(Cl)c2)[nH]c2ccccc12
800

P: O=S(=O)(NCc1ccc(-c2ccccc2)cc1)c1cc2cc(Br)ccc2[nH]1
Q: CN(C)c1ccc(-c2ccc(CNS(=O)(=O)c3cc4ccccc4[nH]3)cc2)cc1
Problem: Would you kindly point out which of P and Q has the smaller IC50 figure? // caller expects the label of the chosen entry
Solution: Q

* * *

# method: Cmax in NMRI mouse blood at 10 mg/kg, po
# Format: ADME, organism-based
# Set-up: dose 10 mg/kg, route oral
attribute measured: Cmax (µg/mL)

O=S(=O)(NCc1ccc(-c2ccc(F)cc2F)cn1)c1cc2cc(Cl)ccc2[nH]1
0.848
O=S(=O)(NCc1ccc(-c2ccc(F)nc2F)cc1)c1cc2cc(Cl)ccc2[nH]1
0.672

* * *

# method: Half life in human liver microsomes at 3 uM in presence of NADPH by LC-MS/MS analysis
# Format: ADME, Microsome
attribute measured: half-life at 3 µM (min)

Solved cases below.
Cc1c(S(=O)(=O)NCCc2ccccc2)[nH]c2ccccc12
3
O=S(=O)(NCc1ccc(-c2ccc(F)cc2)cc1F)c1cc2cc(Cl)ccc2[nH]1
146
O=S(=O)(NCc1ccc(-c2ccc(F)nc2)cc1)c1cc2ccc(Cl)cc2[nH]1
22
Cc1c(S(=O)(=O)NCCc2ccc(N(C)C)cc2)[nH]c2ccccc12
13
O=S(=O)(NCc1ccc(-c2ccc(F)cc2F)cn1)c1cc2cc(Br)ccc2[nH]1
53

I: CCc1c(S(=O)(=O)NCCc2ccc(N3CCCCC3)cc2)[nH]c2ccc(Cl)cc12
II: O=S(=O)(NCc1ccc(-c2ccc(F)cc2F)cc1)c1cc2cc(Cl)ccc2[nH]1
Problem: I need your help: which of the pair I , II has higher half-life at 3 µM? // caller expects the label of the chosen entry
Solution: II

I: Cc1ccc(CNS(=O)(=O)c2[nH]c3ccccc3c2C)cc1
II: CCc1c(S(=O)(=O)NCCc2ccc(N3CCOCC3)cc2)[nH]c2ccc(Cl)cc12
Problem: I need your help: which of the pair I , II has higher half-life at 3 µM? // caller expects the label of the chosen entry
Solution: II
(II: 10 min, I: 7 min)

* * *

# method: Ratio of drug level in NMRI mouse brain to blood after 2 hrs
# Format: ADME, tissue-based
attribute measured: Kp at 2 h

O=S(=O)(NCc1ccc(-c2ccc(F)nc2)cc1)c1cc2ccc(Cl)cc2[nH]1
2.7
O=S(=O)(NCc1ccc(-c2ccc(F)cc2F)cn1)c1cc2cc(Cl)ccc2[nH]1
3.3

* * *

# method: Ratio of drug level in […] brain to blood at 30mg/kg, ip after 1 hr by HPLC/MS/MS method
# Format: ADME, organism-based
attribute measured: Kp at 1 h
Number only, no unit.

Problem: Fill in the blank: the reported Kp at 1 h of "CCc1c(C(=O)NCCc2ccc(N3CCCCC3)cc2)[nH]c2ccc(Cl)cc12" is ____.
Solution: 1.1

Where do the numbers come from? From ChEMBL document CHEMBL4431361.
